- Test system: mouse leukemia P388 cells
- measurement description: In vivo antitumor effects against mouse leukemia P388 cells in BDF1 mice
- study conditions: P388, ip, 10 mg/kg, abdominal cavity, nine everyday, read-out: T/C(%)
measured parameter: response vs control in vivo at 10 mg/kg (%)
State the answer as a number, implicitly in %.

See these solved cases before continuing.
COc1cc(OC)cc(N2CCN(C(=O)Nc3cc4ccccc4nc3OC)CC2)c1 :: 140
CCCc1nc(OC)c(NC(=O)N2CCN(c3cc(OC)cc(OC)c3)CC2)cc1C :: 110
C=Cc1cc(NC(=O)N2CCN(c3cc(OC)cc(OC)c3)CC2)c(OC)nc1C :: 140
COc1cc(OC)cc(N2CCN(C(=O)Nc3cc(C(C)O)c(C)nc3OC)CC2)c1 (centres unmarked) :: 140

Now look at this entry.
Input line: Return response vs control in vivo at 10 mg/kg measured with mouse leukemia P388 cells given this compound: C=Cc1cc(NC(=O)N2CCN(c3cc(C)cc(C)c3)CC2)c(OC)nc1C
Output line: 140

---

- measurement description: Acute toxicity test (LD50), Litchfield-Wilcoxon method
- study conditions: mouse, in vivo, ip, male ICR mice, 14 days
measured parameter: LD50 at 336 h (mg/kg)
State the answer as a number, implicitly in mg/kg.

See these solved cases before continuing.
COc1cc(C)c(C)cc1NC(=O)N1CCN(c2cccc(OC(C)=O)c2)CC1 :: 348
COc1cc(OC)cc(N2CCN(C(=O)Nc3cc(C(C)O)c(C)nc3OC)CC2)c1 (stereo not shown) :: 410
COc1nc2ccccc2cc1NC(=O)N1CCN(c2cc(C)cc(C)c2)CC1 :: 700
CCCc1cc(NC(=O)N2CCN(c3cc(OC)cc(OC)c3)CC2)c(OC)nc1C :: 707

Input line: // query LD50 at 336 h value for entry COc1cc(OC)cc(N2CCN(C(=O)Nc3cc4ccccc4nc3OC)CC2)c1
Output line: 1600

Input line: // query LD50 at 336 h value for entry CCCc1nc(OC)c(NC(=O)N2CCN(c3cc(OC)cc(OC)c3)CC2)cc1C
Output line: 190

Input line: // query LD50 at 336 h value for entry COc1cc(C)c(C)cc1NC(=O)N1CCN(c2cc(C)cc(C)c2)CC1
Output line: 723

Input line: // query LD50 at 336 h value for entry C=C(C)c1ccccc1N1CCN(C(=O)Nc2cc(C)c(C)cc2OC)CC1
Output line: 418

---

- Tested on: SKOV-3 (human ovarian)
- measurement description: SRB assay, in vitro antitumor effect against SKOV-3
- Assay type: cell-based
- study conditions: Homo sapiens; SK-OV-3, 48 hours; read-out: ED50 (the source's name)
Criterion: IC50 strictly less than 20 ng/mL. Met: Condition met. Not met: Condition not met.

CCCc1cc(NC(=O)N2CCN(c3ccccc3OC)CC2)c(OC)nc1C :: Condition not met
COc1cc(OC)cc(N2CCN(C(=O)Nc3cc(C)c(C)cc3OC)CC2)c1 :: Condition met
CCCc1nc(OC)c(NC(=S)N2CCN(c3cccc(O)c3)CC2)cc1C :: Condition not met
C=Cc1cc(NC(=O)N2CCN(c3cc(C)cc(C)c3)CC2)c(OC)nc1C :: Condition met
CCCc1nc(OC)c(NC(=O)N2CCN(c3cccc(O)c3)CC2)cc1C :: Condition met
COc1cc(OC)cc(N2CCN(C(=S)Nc3cc4ccccc4nc3OC)CC2)c1 :: Condition not met
COc1nc2ccccc2cc1NC(=O)N1CCN(c2cc(Cl)cc(Cl)c2)CC1 :: Condition not met
COc1cc(OC)cc(N2CCN(C(=O)Nc3cc4ccccc4nc3OC)CC2)c1 :: Condition met
COc1nc(C)c(C)cc1N(C)C(=O)N1CCN(c2cc(C)cc(C)c2)CC1 :: Condition not met
CCN(C(=O)N1CCN(c2cc(OC)cc(OC)c2)CC1)c1cc(C)c(C)nc1OC :: Condition not met

Input line: Given COc1cc(C)c(C)cc1NC(=O)N1CCN(c2c(C)c(C)cc(C)c2C)CC1 , is recorded IC50 strictly lower than 20 ng/mL?
Output line: Condition not met

Input line: Given CCc1cc(NC(=O)N2CCN(c3ccccc3SC)CC2)c(OC)nc1C , is recorded IC50 strictly lower than 20 ng/mL?
Output line: Condition not met

Input line: Given CCc1nc(OC)c(N(C)C(=O)N2CCN(c3cc(OC)cc(OC)c3)CC2)cc1C , is recorded IC50 strictly lower than 20 ng/mL?
Output line: Condition not met

Input line: Given COc1nc2ccccc2cc1NC(=S)N1CCN(c2cc(Cl)cc(Cl)c2)CC1 , is recorded IC50 strictly lower than 20 ng/mL?
Output line: Condition not met

Input line: Given COc1cc(C)c(C)cc1NC(=S)N1CCN(c2cc(C)cc(C)c2)CC1 , is recorded IC50 strictly lower than 20 ng/mL?
Output line: Condition not met

Input line: Given COc1cc(OC)cc(N2CCN(C(=O)N(C)c3cc(C)c(C)nc3OC)CC2)c1 , is recorded IC50 strictly lower than 20 ng/mL?
Output line: Condition met

---

- System: SKOV-3 (human ovarian)
- measurement description: SRB assay, in vitro antitumor effect against SKOV-3
- Type: cell-based
- study conditions: Homo sapiens; SK-OV-3, 48 hours; read-out: ED50 (the source's name)
Criterion: IC50 strictly less than 0.1 µg/mL. Met: yes. Not met: no.

// known answers, use as guide
C=C(C)c1ccccc1N1CCN(C(=O)Nc2cc(CC)c(C)nc2OC)CC1 :: no
CCCc1nc(OC)c(NC(=S)N2CCN(c3cc(C)cc(C)c3)CC2)cc1C :: no
CCCc1nc(OC)c(NC(=O)N2CCN(c3cc(OC)cc(OC)c3)CC2)cc1C :: yes
C=Cc1cc(NC(=O)N2CCN(c3cc(OC)cc(OC)c3)CC2)c(OC)nc1C :: yes
COc1cc(C)c(C)cc1NC(=O)N1CCN(c2cccc(O)c2)CC1 :: no
COc1cc(OC)cc(N2CCN(C(=O)N(c3cc(C)c(C)nc3OC)C(C)C)CC2)c1 :: yes
CCCc1nc(OC)c(NC(=O)N2CCN(c3cc(C)cc(C)c3)CC2)cc1C :: yes
COc1cc(C)c(C)cc1N(C)C(=O)N1CCN(c2cc(C)cc(C)c2)CC1 :: no

Could you now consider this next compound?
Input line: Given COc1cc(C)c(C)cc1NC(=O)N1CCN(c2ccccc2OC)CC1 , is recorded IC50 strictly lower than 0.1 µg/mL?
Output line: no

---

- measurement description: Acute toxicity test (LD50), Litchfield-Wilcoxon method
- study conditions: mouse, in vivo, ip, male ICR mice, 14 days
measured parameter: LD50 at 336 h (mg/kg)
State the answer as a number, implicitly in mg/kg.

See these solved cases before continuing.
COc1cc(C)c(C)cc1NC(=O)N1CCN(c2ccccc2)CC1 :: 573
CCc1nc(OC)c(NC(=O)N2CCN(c3cc(OC)cc(OC)c3)CC2)cc1C :: 165
CCCc1nc(OC)c(NC(=O)N2CCN(c3cc(C)cc(C)c3)CC2)cc1C :: 283
CCc1nc(OC)c(NC(=O)N2CCN(c3cc(C)cc(C)c3)CC2)cc1C :: 285
C=Cc1cc(NC(=O)N2CCN(c3cc(OC)cc(OC)c3)CC2)c(OC)nc1C :: 250
COc1nc(C)c(C(C)O)cc1NC(=O)N1CCN(c2cc(C)cc(C)c2)CC1 (centres unmarked) :: 455
COc1ccc(C)c(N2CCN(C(=O)Nc3cc(C)c(C)cc3OC)CC2)c1 :: 309

Now look at this entry.
Input line: // query LD50 at 336 h value for entry C=Cc1cc(NC(=O)N2CCN(c3cc(C)cc(C)c3)CC2)c(OC)nc1C
Output line: 361

---

- Tested on: SKOV-3 (human ovarian)
- measurement description: SRB assay, in vitro antitumor effect against SKOV-3
- Assay type: cell-based
- study conditions: Homo sapiens; SK-OV-3, 48 hours; read-out: ED50 (the source's name)
Criterion: IC50 strictly less than 20 ng/mL. Met: True. Not met: False.

Input line: Given COc1nc(C)c(C(C)=O)cc1N(C)C(=O)N1CCN(c2cc(C)cc(C)c2)CC1 , is recorded IC50 strictly lower than 20 ng/mL?
Output line: True

Input line: Given COc1cc(OC)cc(N2CCN(C(=O)Nc3cc(C(C)=O)c(C)nc3OC)CC2)c1 , is recorded IC50 strictly lower than 20 ng/mL?
Output line: False

Input line: Given COc1cc(OC)cc(N2CCN(C(=O)N(C)c3cc(C(C)OC)c(C)nc3OC)CC2)c1 (stereo not shown) , is recorded IC50 strictly lower than 20 ng/mL?
Output line: True

Data provenance is patent US6028195A.
